// data source = the supplement of paper PMC10307832

Let's look at some compounds and their measured relative viability.
Tested on: NCI-H2347
Experiment: relative viability (nuclei count vs DMSO), 5 days (fraction); higher = more cells survive
Conditions: first compound 2 µM

compound: COCC1(CO)C(=O)C2CCN1CC2 (stereo not given) [PRIMA-1MET] + O=C(CCCCCCC(=O)Nc1ccccc1)NO [Vorinostat] (partner 1 µM)
experimental-target: NCI-H2347
relative viability: 0.348
--
compound: COCC1(CO)C(=O)C2CCN1CC2 (stereo not given) [PRIMA-1MET] + COc1cccc2cc(-c3nc([C@H]4CC[C@H](C(=O)O)CC4)n4ncnc(N)c34)[nH]c12 [OSI-027] (partner 0.5 µM)
experimental-target: NCI-H2347
relative viability: 0.247
--
compound: COCC1(CO)C(=O)C2CCN1CC2 (stereo not given) [PRIMA-1MET] + Cc1nc(NC(=O)N2CCC[C@H]2C(N)=O)sc1-c1ccnc(C(C)(C)C(F)(F)F)c1 [Alpelisib] (partner 2 µM)
experimental-target: NCI-H2347
relative viability: 0.602
--
compound: COCC1(CO)C(=O)C2CCN1CC2 (stereo not given) [PRIMA-1MET] + CC(=O)Nc1cccc(-n2c(=O)n(C3CC3)c(=O)c3c(Nc4ccc(I)cc4F)n(C)c(=O)c(C)c32)c1 [Trametinib] (partner 0.02 µM)
experimental-target: NCI-H2347
relative viability: 0.255
--
compound: COCC1(CO)C(=O)C2CCN1CC2 (stereo not given) [PRIMA-1MET] + O=C(c1cc(Cc2n[nH]c(=O)c3ccccc23)ccc1F)N1CCN(C(=O)C2CC2)CC1 [Olaparib] (partner 8 µM)
experimental-target: NCI-H2347
relative viability: 0.559

----------
Test system: NCI-H2023
Assay: relative viability (nuclei count vs DMSO), 5 days (fraction); higher = more cells survive
Conditions: first compound 0.8 µM
Lab note - cut at 0.4 for relative viability: yes (1) if strictly below, no (0) if not.

molecule: O=c1cc(-c2cccc3c2Sc2ccccc2S3)oc(N2CCOCC2)c1 + CCNC(=O)c1noc(-c2cc(C(C)C)c(O)cc2O)c1-c1ccc(CN2CCOCC2)cc1 [Luminespib] (partner 0.01 µM)
experimental-target: NCI-H2023
assigned-label: no (0)

molecule: COc1nc(C)cnc1NS(=O)(=O)c1cccnc1-c1ccc(-c2nnco2)cc1 [Zibotentan] + Cc1nc(NC(=O)N2CCC[C@H]2C(N)=O)sc1-c1ccnc(C(C)(C)C(F)(F)F)c1 [Alpelisib] (partner 2 µM)
experimental-target: NCI-H2023
assigned-label: no (0)

molecule: O=c1cc(-c2cccc3c2Sc2ccccc2S3)oc(N2CCOCC2)c1 + Nc1nc2[nH]cc(CCc3ccc(C(=O)N[C@@H](CCC(=O)O)C(=O)O)cc3)c2c(=O)[nH]1 [Pemetrexed] (partner 0.2 µM)
experimental-target: NCI-H2023
assigned-label: yes (1)

molecule: O=c1cc(-c2cccc3c2Sc2ccccc2S3)oc(N2CCOCC2)c1 + CS(=O)(=O)N1CCN(Cc2cc3nc(-c4cccc5[nH]ncc45)nc(N4CCOCC4)c3s2)CC1 [Pictilisib] (partner 1 µM)
experimental-target: NCI-H2023
assigned-label: yes (1)

----------
Tested on: NCI-H2170
Assay: relative viability (nuclei count vs DMSO), 5 days (fraction); higher = more cells survive
Details: first compound 6.325 µM
Let's look at some molecules and their measured relative viability.
metric-name: relative viability

molecule: COCC1(CO)C(=O)C2CCN1CC2 (stereo unspecified) [PRIMA-1MET] + Cc1cc(Nc2cc(N3CCN(C)CC3)nc(Sc3ccc(NC(=O)C4CC4)cc3)n2)n[nH]1 [Tozasertib] (partner 0.1 µM)
measured-value: 0.722
//
molecule: COCC1(CO)C(=O)C2CCN1CC2 (stereo unspecified) [PRIMA-1MET] + CC(=O)c1c(C)c2cnc(Nc3ccc(N4CCNCC4)cn3)nc2n(C2CCCC2)c1=O [Palbociclib] (partner 0.5 µM)
measured-value: 0.449
//
molecule: COCC1(CO)C(=O)C2CCN1CC2 (stereo unspecified) [PRIMA-1MET] + Nc1ncn([C@H]2C[C@H](O)[C@@H](CO)O2)c(=O)n1 [Decitabine] (partner 2 µM)
measured-value: 0.457
//
molecule: COCC1(CO)C(=O)C2CCN1CC2 (stereo unspecified) [PRIMA-1MET] + N=C(N)NC(=N)NCCc1ccccc1 [Phenformin] (partner 250 µM)
measured-value: 0.405
//
molecule: COCC1(CO)C(=O)C2CCN1CC2 (stereo unspecified) [PRIMA-1MET] + NC(=O)Nc1cc(-c2cccc(F)c2)sc1C(=O)N[C@H]1CCCNC1 [AZD7762] (partner 0.2 µM)
measured-value: 1
//
molecule: COCC1(CO)C(=O)C2CCN1CC2 (stereo unspecified) [PRIMA-1MET] + CS(=O)(=O)CCNCc1ccc(-c2ccc3ncnc(Nc4ccc(OCc5cccc(F)c5)c(Cl)c4)c3c2)o1 [Lapatinib] (partner 2 µM)
measured-value: 0.276
